- Assay procedure: cell viability in Huh7 cells, primary screen, cytotoxicity control for HCV replication inhibitor project, CellTiter-Glo luminescence, basal, 48 h (AID 1143);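 also: Huh7 hepatoma cells carrying a hepatitis C replication reporter with no stimulus; test concentration not given here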
- Assay setup: Huh7 HCV replicon, called active from +8 up or from −8 down
Activity calls are given as the source filed them.
Outcome field: choose from 1 (yes) = active, 0 (no) = inactive

Data request: Tell me the recorded outcome of this test for COC(=O)C1=C(C)N(Cc2ccccc2)c2c(C(=O)OC)c(C(=O)OC)c(C(=O)OC)c(=O)n2[C@@H]1c1ccccc1 .
Data returned: 0 (no)

Data request: Can you look up the reported call for CN(C)CCCC[C@@H]1NC(=O)[C@@H]2C[C@H](C(=O)NCCCCCNC(=O)CS)[C@H](c3ccc(O)cc3)N2C1=O for me?
Data returned: 0 (no)

Data request: Outcome? CCOC(=O)C1=CC[C@@H](c2ccc(-c3ccc(OCc4ccccc4)cc3)c(OC)c2)N(S(=O)(=O)c2ccc(C)cc2)[C@H]1c1ccccc1
Data returned: 0 (no)

Data request: Which outcome was assigned to O=C1c2ccccc2[C@](Cc2ccccc2I)(C(=O)O)[C@H](c2ccc(CO)cc2)N1C1CCCCC1 in this test?
Data returned: 0 (no)
